Entry source: patent US6737383B1

system: crabgrass; test: Test B pre/postemergence crabgrass; assay type: in vivo, Digitaria sanguinalis; details: Preemergence, Rate 62 g/ha; scale 0 to 10 (0 no effect, 10 complete control)
# Plant response rating, Crabgrass annotations
Respond with the number and no other words.

Input line: Endpoint output: Plant response rating, Crabgrass of CC(C)N(C(=O)n1oc(=O)n(N2C(C)CCCC2C)c1=O)c1ccc(F)cc1 (centres unmarked) [Compound 382] . Value?
Output line: 6

Input line: Requested field: Plant response rating, Crabgrass. Item: Cc1nnsc1Cn1c(=O)on(C(=O)N(c2ccc(F)cc2)C(C)C)c1=O [Compound 380]
Output line: 1

----------
Each item that follows carries a reported B. signalgrass plant response rating (0 to 10 scale).
tested on: surinam grass; test: Test B pre/postemergence surinam grass; assay type: in vivo, Brachiaria decumbens; conditions: Preemergence, Rate 125 g/ha; 0 is no effect, 10 is complete control
Lab note: jot the number down without any unit.

Answered cases to consult:
>>> print(df.to_string())
                              smiles_record  experimental_system  endpoint_result
0  CC(C)N(C(=O)n1oc(=O)n(Cc2ccccc2Cl)c1=O)c1ccc(F)cc1        surinam grass                0
1  CC(C)N(C(=O)n1oc(=O)n(C(C)C)c1=O)c1ccc(F)cc1        surinam grass                8
2  CC(C)N(C(=O)n1oc(=O)n([C@H](C)c2ccccc2)c1=O)c1ccc(F)cc1        surinam grass                8

Input line: Which B. signalgrass plant response rating (0 to 10 scale) reading was recorded for the compound Cc1ccccc1-n1c(=O)on(C(=O)N(c2ccc(Cl)cc2Cl)C(C)C)c1=O ?
Output line: 0

Input line: # input compound: CC(C)N(C(=O)n1oc(=O)n(Cc2ccco2)c1=O)c1ccc(F)cc1F ; wanted: its B. signalgrass plant response rating (0 to 10 scale)
Output line: 0
